Origin of values: ChEMBL document CHEMBL4477199

Assay: Apparent permeability from apical to basolateral side in human Caco2 cells at 10 uM incubated for 120 mins by LC-MS/MS analysis
Conditions: Caco-2
Provide the reported Papp A→B at 2 h, 10 µM of each item.

Problem: Please report the recorded Papp A→B at 2 h, 10 µM for C[C@](O)(CSc1ccc(C(F)(F)F)cc1)C(=O)Nc1ccc(C#N)c(C(F)(F)F)c1 .
Solution: 5.8 ×10⁻⁶ cm/s

Problem: Please report the recorded Papp A→B at 2 h, 10 µM for CC(O)(COc1ccc(C(F)(F)F)cc1)C(=O)Nc1ccc(C#N)c(C(F)(F)F)c1 (centres undefined) .
Solution: 5.09 ×10⁻⁶ cm/s

Problem: Please report the recorded Papp A→B at 2 h, 10 µM for CC(O)(CSc1ccccc1C(F)(F)F)C(=O)Nc1ccc([N+](=O)[O-])c(C(F)(F)F)c1 (centres undefined) .
Solution: 3.44 ×10⁻⁶ cm/s

Problem: Please report the recorded Papp A→B at 2 h, 10 µM for CC(O)(CS(=O)(=O)c1ccccc1C(F)(F)F)C(=O)Nc1ccc([N+](=O)[O-])c(C(F)(F)F)c1 (centres undefined) .
Solution: 13.3 ×10⁻⁶ cm/s

Problem: Please report the recorded Papp A→B at 2 h, 10 µM for CC(O)(CSc1cccc(C(F)(F)F)c1)C(=O)Nc1ccc(C#N)c(C(F)(F)F)c1 (centres undefined) .
Solution: 3.92 ×10⁻⁶ cm/s

Problem: Please report the recorded Papp A→B at 2 h, 10 µM for CC(O)(CSc1cccc(C(F)(F)F)c1)C(=O)Nc1ccc([N+](=O)[O-])c(C(F)(F)F)c1 (centres undefined) .
Solution: 5 ×10⁻⁶ cm/s

Problem: Please report the recorded Papp A→B at 2 h, 10 µM for CC(C)NCC(O)COc1cccc2ccccc12 (centres undefined) .
Solution: 40.3 ×10⁻⁶ cm/s

Problem: Please report the recorded Papp A→B at 2 h, 10 µM for C[C@](O)(CSc1cccc(C(F)(F)F)c1)C(=O)Nc1ccc(C#N)c(C(F)(F)F)c1 .
Solution: 6.84 ×10⁻⁶ cm/s

Problem: Please report the recorded Papp A→B at 2 h, 10 µM for C[C@](O)(COc1ccc(C#N)cc1)C(=O)Nc1ccc(C#N)c(C(F)(F)F)c1 .
Solution: 31.5 ×10⁻⁶ cm/s

====

Provide the reported IC50 of each item.
Test system: CWR22R
Assay: Antiproliferative activity against human 22Rv1 cells after 96 hrs by propidium iodide staining based fluorescence 2D monolayer assay
Format: functional, cell-based
Details: 22Rv1, 96 h
Supply the numeric figure in µM, leaving out any unit text.

Problem: Please report the recorded IC50 for O=C(Nc1ccc([N+](=O)[O-])c(C(F)(F)F)c1)C(O)(CSc1ccccc1C(F)(F)F)C(F)(F)F (stereo not given) .
Solution: 1.28

Problem: Please report the recorded IC50 for CC1(C)C(=O)N(c2ccc(C(F)(F)F)cc2)C(=O)N1c1ccc(C#N)cc1C(F)(F)F .
Solution: 100

Problem: Please report the recorded IC50 for CC(O)(CS(=O)(=O)c1ccc(F)cc1)C(=O)Nc1ccc(C#N)cc1C(F)(F)F (stereo not given) .
Solution: 77

Problem: Please report the recorded IC50 for CC(O)(COc1ccc(C#N)cc1C(F)(F)F)C(=O)Nc1ccc(C#N)cc1C(F)(F)F (stereo not given) .
Solution: 18.4

Problem: Please report the recorded IC50 for CC(O)(COc1cccc(C(F)(F)F)c1)C(=O)Nc1ccc(C(F)(F)F)cc1 (stereo not given) .
Solution: 25.7

Problem: Please report the recorded IC50 for CC(O)(CSc1cccc(C(F)(F)F)c1)C(=O)Nc1ccc(C#N)cc1C(F)(F)F (stereo not given) .
Solution: 15.2

Problem: Please report the recorded IC50 for CC(O)(COc1ccc(F)c(F)c1)C(=O)Nc1ccc([N+](=O)[O-])c(C(F)(F)F)c1 (stereo not given) .
Solution: 18.5

Problem: Please report the recorded IC50 for CC1(C)C(=O)N(c2cccc(C(F)(F)F)c2)C(=O)N1c1ccccc1C(F)(F)F .
Solution: 100

Problem: Please report the recorded IC50 for CC(O)(CS(=O)(=O)c1cccc(C(F)(F)F)c1)C(=O)Nc1ccc([N+](=O)[O-])c(C(F)(F)F)c1 (stereo not given) .
Solution: 16.1

Problem: Please report the recorded IC50 for CC(O)(COc1cccc(C(F)(F)F)c1)C(=O)Nc1ccc(C#N)c(C(F)(F)F)c1 (stereo not given) .
Solution: 5.89

Problem: Please report the recorded IC50 for CC(O)(COc1cccc(C(F)(F)F)c1)C(=O)Nc1ccc([N+](=O)[O-])c(C(F)(F)F)c1 (stereo not given) .
Solution: 8.58

Problem: Please report the recorded IC50 for CC(O)(COc1cccc(C(F)(F)F)c1)C(=O)Nc1ccc(C#N)cc1C(F)(F)F (stereo not given) .
Solution: 18.7

Problem: Please report the recorded IC50 for CC(O)(COc1ccccc1OC(F)(F)F)C(=O)Nc1ccc([N+](=O)[O-])c(C(F)(F)F)c1 (stereo not given) .
Solution: 6.6

Problem: Please report the recorded IC50 for CC(O)(COc1ccc(C#N)cc1)C(=O)Nc1ccc([N+](=O)[O-])c(C(F)(F)F)c1 (stereo not given) .
Solution: 30.9

Problem: Please report the recorded IC50 for CC(O)(CS(=O)(=O)c1ccc(C(F)(F)F)cc1)C(=O)Nc1ccc([N+](=O)[O-])c(C(F)(F)F)c1 (stereo not given) .
Solution: 18.7

Problem: Please report the recorded IC50 for C[C@](O)(CS(=O)(=O)c1ccc(F)cc1F)C(=O)Nc1ccc(C#N)c(C(F)(F)F)c1 .
Solution: 42.2

Problem: Please report the recorded IC50 for CC(O)(COc1ccc(F)cc1F)C(=O)Nc1ccc([N+](=O)[O-])c(C(F)(F)F)c1 (stereo not given) .
Solution: 20.2

Problem: Please report the recorded IC50 for CC(O)(CSc1cccc(C(F)(F)F)c1)C(=O)Nc1ccc([N+](=O)[O-])c(C(F)(F)F)c1 (stereo not given) .
Solution: 5.07

Problem: Please report the recorded IC50 for C[C@](O)(CSc1ccccc1C(F)(F)F)C(=O)Nc1ccc(C#N)c(C(F)(F)F)c1 .
Solution: 5.3

Problem: Please report the recorded IC50 for CC(O)(COc1ccccc1OC(F)(F)F)C(=O)Nc1ccc(C#N)cc1C(F)(F)F (stereo not given) .
Solution: 16.7

Problem: Please report the recorded IC50 for CC(O)(CSc1ccccc1C(F)(F)F)C(=O)Nc1ccc(C#N)c(C(F)(F)F)c1 (stereo not given) .
Solution: 5.06

Problem: Please report the recorded IC50 for CC(O)(CS(=O)(=O)c1ccc(F)c(F)c1)C(=O)Nc1ccc([N+](=O)[O-])cc1C(F)(F)F (stereo not given) .
Solution: 33.6

Problem: Please report the recorded IC50 for CC(O)(CSc1ccc(C(F)(F)F)cc1)C(=O)Nc1ccc([N+](=O)[O-])c(C(F)(F)F)c1 (stereo not given) .
Solution: 16.4

Problem: Please report the recorded IC50 for CC(O)(CS(=O)(=O)c1cccc(OC(F)(F)F)c1)C(=O)Nc1ccc([N+](=O)[O-])cc1C(F)(F)F (stereo not given) .
Solution: 18

Problem: Please report the recorded IC50 for CC(O)(CS(=O)(=O)c1ccc(OC(F)(F)F)cc1)C(=O)Nc1ccc(C#N)c(C(F)(F)F)c1 (stereo not given) .
Solution: 17

Problem: Please report the recorded IC50 for CC(O)(COc1ccc(C(F)(F)F)cc1)C(=O)Nc1ccc(C#N)cc1C(F)(F)F (stereo not given) .
Solution: 29.9

Problem: Please report the recorded IC50 for C[C@](O)(CS(=O)(=O)c1ccccc1C(F)(F)F)C(=O)Nc1ccc(C#N)c(C(F)(F)F)c1 .
Solution: 34.8

Problem: Please report the recorded IC50 for CC(O)(COc1ccc(OC(F)(F)F)cc1)C(=O)Nc1ccc(C#N)c(C(F)(F)F)c1 (stereo not given) .
Solution: 17.2

Problem: Please report the recorded IC50 for C[C@](O)(CS(=O)(=O)c1ccc(F)cc1)C(=O)Nc1ccc(C#N)cc1C(F)(F)F .
Solution: 100

Problem: Please report the recorded IC50 for CC(O)(CSc1ccc(F)cc1)C(=O)Nc1ccc(C#N)cc1C(F)(F)F (stereo not given) .
Solution: 30.1

Problem: Please report the recorded IC50 for CC1(C)C(=O)N(c2cccc(C(F)(F)F)c2)C(=O)N1c1ccc([N+](=O)[O-])c(C(F)(F)F)c1 .
Solution: 100

Problem: Please report the recorded IC50 for C[C@](O)(CS(=O)(=O)c1ccc(OC(F)(F)F)cc1)C(=O)Nc1ccc(C#N)c(C(F)(F)F)c1 .
Solution: 18.8

Problem: Please report the recorded IC50 for CC(O)(COc1ccc(F)c(F)c1)C(=O)Nc1ccc(C#N)c(C(F)(F)F)c1 (stereo not given) .
Solution: 35.5

====

System: CWR22R
Experiment: Antiproliferative activity against human 22Rv1 cells after 96 hrs by propidium iodide staining based fluorescence 2D monolayer assay
Assay type: functional, cell-based
Settings: 22Rv1, 96 h
readout: IC70

Problem: Please report the recorded IC70 for CC(O)(CSc1ccccc1OC(F)(F)F)C(=O)Nc1ccc([N+](=O)[O-])cc1C(F)(F)F (stereo unspecified) .
Solution: 6.31 µM

Problem: Please report the recorded IC70 for O=C(Nc1ccc([N+](=O)[O-])c(C(F)(F)F)c1)C(O)(CSc1ccccc1C(F)(F)F)C(F)(F)F (stereo unspecified) .
Solution: 1.7 µM

Problem: Please report the recorded IC70 for CC1(C)C(=O)N(c2ccc(C(F)(F)F)cc2)C(=O)N1c1ccc([N+](=O)[O-])c(C(F)(F)F)c1 .
Solution: > 100 µM

Problem: Please report the recorded IC70 for C[C@](O)(CS(=O)(=O)c1ccc(F)cc1)C(=O)Nc1ccc(C#N)c(C(F)(F)F)c1 [(R)-BICALUTAMIDE] .
Solution: 58.7 µM

Problem: Please report the recorded IC70 for CC(O)(CS(=O)(=O)c1ccc(OC(F)(F)F)cc1)C(=O)Nc1ccc([N+](=O)[O-])cc1C(F)(F)F (stereo unspecified) .
Solution: > 100 µM

Problem: Please report the recorded IC70 for CC(O)(CS(=O)(=O)c1ccc(F)cc1)C(=O)Nc1ccc(C#N)c(C(F)(F)F)c1 (stereo unspecified) [BICALUTAMIDE] .
Solution: 65.1 µM
